protocol-text: Total plasma clearance Clp was determined for the compound after iv dose of 5.06 mg/kg in rats
Format: ADME, organism-based
Design: dose 5.06 mg/kg, route intravenous
measurement-context: rat, read-out: Clp (converted)
reported-property: clearance (mL/min/kg)
Express your answer in mL/min/kg, writing the number without its unit.

Dear colleague, please send me the reported clearance for "C[C@H]1CN(C(=O)N2Cc3c(C(=O)OC(C)(C)C)ncn3-c3ccc(Cl)cc32)C[C@H](C)N1" when you can.
17.8

* * *

protocol-text: Half-life after po dose of 5.01 mg/kg in rats
Format: ADME, organism-based
Set-up: dose 5.01 mg/kg, route oral
measurement-context: rat, in vivo
reported-property: half-life (h)
Express your answer in h, writing the number without its unit.

Dear colleague, please send me the reported half-life for "C[C@H]1CN(C(=O)N2Cc3c(C(=O)OC(C)(C)C)ncn3-c3ccc(Cl)cc32)C[C@H](C)N1" when you can.
2.4

* * *

Tested on: Rattus norvegicus
protocol-text: Mean number of shocks produced by the compound in rats at a dose of 3 mg/kg was determined by vogel's punished licking assay
Assay type: functional
Rule: Mean no. of shocks below 6 gives 1. Equal to or above 6 gives 0.

Mean no. of shocks under 6? Item: "CC(C)N1[C@H](C)CN(C(=O)N2Cc3c(C(=O)OC(C)(C)C)ncn3-c3ccc(Cl)cc32)C[C@@H]1C"
1

Mean no. of shocks under 6? Item: "C[C@@H]1CN(C(=O)N2Cc3c(C(=O)OC(C)(C)C)ncn3-c3ccc(C(F)(F)F)cc32)C[C@H](C)N1"
0

Mean no. of shocks under 6? Item: "C[C@H]1CN(C(=O)N2Cc3c(C(=O)OC(C)(C)C)ncn3-c3ccc(Cl)cc32)C[C@H](C)N1"
1

Mean no. of shocks under 6? Item: "CCCC(=O)O.C[C@@H]1CN(C(=O)N2Cc3c(C(=O)OC(C)(C)C)ncn3-c3ccc(Cl)cc32)C[C@H](C)N1"
1

Mean no. of shocks under 6? Item: "C[C@@H]1CN(C(=O)N2Cc3c(C(=O)OC(C)(C)C)ncn3-c3ccc(Cl)cc32)C[C@H](C)N1C"
0

* * *

Give pKi for every item shown.
system-name: GABA-A receptor; anion channel
protocol-text: Displacement of [3H]flunitrazepam from GABA-A benzodiazepine receptor of rat cortical membranes
API: returns pKi as number; meaning -log10 of concentration in mol/L.

Dear colleague, please send me the reported pKi for "CC(C)(C)OC(=O)c1ncn2c1CN(C(=O)N1CCCCC1)c1ccccc1-2" when you can.
8.87

Dear colleague, please send me the reported pKi for "CC(=O)N1[C@H](C)CN(C(=O)N2Cc3c(C(=O)OC(C)(C)C)ncn3-c3ccc(Cl)cc32)C[C@@H]1C" when you can.
8.33

Dear colleague, please send me the reported pKi for "CN(C)C(=O)N1Cc2c(C(=O)OC(C)(C)C)ncn2-c2ccc(Cl)cc21" when you can.
8.25

Dear colleague, please send me the reported pKi for "Cc1ccc2c(c1)N(C(=O)N1CCN[C@@H](C)C1)Cc1c(C(=O)OC(C)(C)C)ncn1-2" when you can.
7.75

Dear colleague, please send me the reported pKi for "CN1CCN(C(=O)N2Cc3c(C(=O)OC(C)(C)C)ncn3-c3ccc(Cl)cc32)CC1" when you can.
7.96

* * *

protocol-text: half-life after po dose of 5.03 mg/kg in rats
Assay type: ADME, organism-based
Parameters: dose 5.03 mg/kg, route oral
measurement-context: rat, in vivo
reported-property: half-life (h)
Express your answer in h, writing the number without its unit.

Dear colleague, please send me the reported half-life for "C[C@@H]1CN(C(=O)N2Cc3c(C(=O)OC(C)(C)C)ncn3-c3ccc(C(F)(F)F)cc32)C[C@H](C)N1" when you can.
2.7
